Below is a list of entries, each paired with its recorded MIC H. influenzae 1218 value.
System: Haemophilus influenzae 1218
Assay: MIC, microtiter broth dilution (NCCLS M100-S14), H. influenzae 1218 (susceptible)
Assay type: cell-based
Details: Haemophilus influenzae 1218
Description: The assay described herein includes a panel of bacterial strains assembled to include a variety of target pathogenic species, including representatives of macrolide resistance mechanisms that have been characterized. In many cases, both the macrolide-susceptible parent strain and the macrolide-resistant strain derived from it are available to provide a more accurate assessment of the compound's ability to circumvent the resistance mechanism. […]

- Molecule: "CCC1OC(=O)C(C)C(=O)C(C)C(OC2OC(C)CC(N(C)C)C2O)C(C)(OC)CC(C)C(=O)C(C)C2N(C3CN(S(=O)(=O)c4ccc(OC)c(OCC#N)c4)C3)C(=O)OC12C (stereo not shown)"
  Target or test system: "Haemophilus influenzae 1218"
  Result operator: "<"
  MIC H. influenzae 1218 / µg/mL: 0.063
- Molecule: "CCC1OC(=O)C(C)C(=O)C(C)C(OC2OC(C)CC(N(C)C)C2O)C(C)(OC)CC(C)C(=O)C(C)C2N(C3CN(S(=O)(=O)c4cccc(-c5ncon5)c4)C3)C(=O)OC12C (stereo not shown)"
  Target or test system: "Haemophilus influenzae 1218"
  Result operator: "="
  MIC H. influenzae 1218 / µg/mL: 0.25
- Molecule: "CCC1OC(=O)C(C)C(=O)C(C)C(OC2OC(C)CC(N(C)C)C2O)C(C)(OC)CC(C)C(=O)C(C)C2N(C3CN(S(=O)(=O)c4ccc(-n5cccn5)c(C#N)c4)C3)C(=O)OC12C (stereo not shown)"
  Target or test system: "Haemophilus influenzae 1218"
  Result operator: "="
  MIC H. influenzae 1218 / µg/mL: 1
- Molecule: "CCc1noc(-c2cccc(CN3CC(N4C(=O)OC5(C)C(CC)OC(=O)C(C)C(=O)C(C)C(OC6OC(C)CC(N(C)C)C6O)C(C)(OC)CC(C)C(=O)C(C)C45)C3)c2)n1 (stereo not shown) [Example 1.44, 3-(3-ethyl-[1,2,4]oxadiazol-5-yl)benzyl]"
  Target or test system: "Haemophilus influenzae 1218"
  Result operator: "="
  MIC H. influenzae 1218 / µg/mL: 16
- Molecule: "CCC1OC(=O)C(C)C(=O)C(C)C(OC2OC(C)CC(N(C)C)C2O)C(C)(OC)CC(C)C(=O)C(C)C2N(CC3CN(C(=O)c4ccc5cccnc5n4)C3)C(=O)OC12C.O=CO (stereo not shown)"
  Target or test system: "Haemophilus influenzae 1218"
  Result operator: "="
  MIC H. influenzae 1218 / µg/mL: 4
- Molecule: "CCC1OC(=O)C(C)C(=O)C(C)C(OC2OC(C)CC(N(C)C)C2O)C(C)(OC)CC(C)C(=O)C(C)C2N(C3CN(C(c4ccccc4)c4cccnc4)C3)C(=O)OC12C (single isomer, unassigned) [Example 1.67, phenyl-(pyridin-3-yl)methyl (*)]"
  Target or test system: "Haemophilus influenzae 1218"
  Result operator: "="
  MIC H. influenzae 1218 / µg/mL: 0.5
- Molecule: "CCC1OC(=O)C(C)C(=O)C(C)C(OC2OC(C)CC(N(C)C)C2O)C(C)(OC)CC(C)C(=O)C(C)C2N(CC3CN(Cc4ccc5ncccc5c4)C3)C(=O)OC12C (stereo not shown)"
  Target or test system: "Haemophilus influenzae 1218"
  Result operator: "="
  MIC H. influenzae 1218 / µg/mL: 0.5
- Molecule: "CCC1OC(=O)C(C)C(=O)C(C)C(OC2OC(C)CC(N(C)C)C2O)C(C)(OC)CC(C)C(=O)C(C)C2N(C3CN(S(=O)(=O)c4ccc(N5CCOC5=O)cc4)C3)C(=O)OC12C (stereo not shown)"
  Target or test system: "Haemophilus influenzae 1218"
  Result operator: "="
  MIC H. influenzae 1218 / µg/mL: 1
- Molecule: "CCC1OC(=O)C(C)C(=O)C(C)C(OC2OC(C)CC(N(C)C)C2O)C(C)(OC)CC(C)C(=O)C(C)C2N(C3CN(S(=O)(=O)c4ccc(Oc5cccnc5)cc4)C3)C(=O)OC12C (stereo not shown)"
  Target or test system: "Haemophilus influenzae 1218"
  Result operator: "="
  MIC H. influenzae 1218 / µg/mL: 1
- Molecule: "CCC1OC(=O)C(C)C(=O)C(C)C(OC2OC(C)CC(N(C)C)C2O)C(C)(OC)CC(C)C(=O)C(C)C2N(C3CN(S(=O)(=O)c4ccc(-n5ccnc5)c(C#N)c4)C3)C(=O)OC12C (stereo not shown)"
  Target or test system: "Haemophilus influenzae 1218"
  Result operator: "="
  MIC H. influenzae 1218 / µg/mL: 0.5
- Molecule: "CCC1OC(=O)C(C)C(=O)C(C)C(OC2OC(C)CC(N(C)C)C2O)C(C)(OC)CC(C)C(=O)C(C)C2N(C3CN(S(=O)(=O)c4ccc5cn[nH]c5c4)C3)C(=O)OC12C (stereo not shown)"
  Target or test system: "Haemophilus influenzae 1218"
  Result operator: "="
  MIC H. influenzae 1218 / µg/mL: 0.25
- Molecule: "CCOc1ccc(S(=O)(=O)N2CC(N3C(=O)OC4(C)C(CC)OC(=O)C(C)C(=O)C(C)C(OC5OC(C)CC(N(C)C)C5O)C(C)(OC)CC(C)C(=O)C(C)C34)C2)cc1OC (stereo not shown)"
  Target or test system: "Haemophilus influenzae 1218"
  Result operator: "="
  MIC H. influenzae 1218 / µg/mL: 0.25
- Molecule: "CCC1OC(=O)C(C)C(=O)C(C)C(OC2OC(C)CC(N(C)C)C2O)C(C)(OC)CC(C)C(=O)C(C)C2N(C3CN(Cc4ccnc5[nH]c(C6CC6)nc45)C3)C(=O)OC12C (stereo not shown)"
  Target or test system: "Haemophilus influenzae 1218"
  Result operator: "="
  MIC H. influenzae 1218 / µg/mL: 4
- Molecule: "CCC1OC(=O)C(C)C(=O)C(C)C(OC2OC(C)CC(N(C)C)C2O)C(C)(OC)CC(C)C(=O)C(C)C2N(C3CN(Cc4cccc5ccccc45)C3)C(=O)OC12C (stereo not shown)"
  Target or test system: "Haemophilus influenzae 1218"
  Result operator: "="
  MIC H. influenzae 1218 / µg/mL: 1
- Molecule: "CCC1OC(=O)C(C)C(=O)C(C)C(OC2OC(C)CC(N(C)C)C2O)C(C)(OC)CC(C)C(=O)C(C)C2N(C3CN(S(=O)(=O)c4c(C)n[nH]c4C)C3)C(=O)OC12C (stereo not shown)"
  Target or test system: "Haemophilus influenzae 1218"
  Result operator: "="
  MIC H. influenzae 1218 / µg/mL: 0.25
- Molecule: "CCC1OC(=O)C(C)C(=O)C(C)C(OC2OC(C)CC(N(C)C)C2O)C(C)(OC)CC(C)C(=O)C(C)C2N(C3CN(Cc4ccc(C#N)cc4)C3)C(=O)OC12C (stereo not shown)"
  Target or test system: "Haemophilus influenzae 1218"
  Result operator: "="
  MIC H. influenzae 1218 / µg/mL: 0.25
- Molecule: "CCC1OC(=O)C(C)C(=O)C(C)C(OC2OC(C)CC(N(C)C)C2O)C(C)(OC)CC(C)C(=O)C(C)C2N(C3CN(Cc4ccc(C#N)c5ncccc45)C3)C(=O)OC12C (stereo not shown)"
  Target or test system: "Haemophilus influenzae 1218"
  Result operator: "="
  MIC H. influenzae 1218 / µg/mL: 1
- Molecule: "CCC1OC(=O)C(C)C(=O)C(C)C(OC2OC(C)CC(N(C)C)C2O)C(C)(OC)CC(C)C(=O)C(C)C2N(C3CN(S(=O)(=O)c4ccc5oc(=O)[nH]c5c4)C3)C(=O)OC12C (stereo not shown) [Example 3.43]"
  Target or test system: "Haemophilus influenzae 1218"
  Result operator: "="
  MIC H. influenzae 1218 / µg/mL: 0.5
- Molecule: "CCC1OC(=O)C(C)C(=O)C(C)C(OC2OC(C)CC(N(C)C)C2O)C(C)(OC)CC(C)C(=O)C(C)C2N(C3CN(C(=O)c4cccc5[nH]c(C)nc45)C3)C(=O)OC12C (stereo not shown)"
  Target or test system: "Haemophilus influenzae 1218"
  Result operator: "="
  MIC H. influenzae 1218 / µg/mL: 2
